Record form. Attribute: z-score. Fill in for each entry.
# assay-explanation: DUSP6 inhibitors restoring Erk phosphorylation by chemical complementation, primary imaging in DUSP6-transfected HeLa (AID 609)
# experimental-conditions: HeLa MKP-3 transfected, phospho-Erk imaging KS statistic; measured here: nuclear pErk red intensity z-score; at 10 µM; stronger effect = higher value; cells stimulated with TPA for 15 min
Answers are plain numbers.

>  <molecule>
O=C(NCc1cccnc1)c1ccc(=O)oc1

>  <z-score>
-1.58

$$$$
>  <molecule>
COc1cccc(OC)c1OCC(C)CNCC1CCCO1 (stereo unspecified)

>  <z-score>
1.28

$$$$
>  <molecule>
CCOC(=O)C1CCN(C(C)=C2C(=O)c3ccccc3C2=O)CC1

>  <z-score>
0.114

$$$$
>  <molecule>
CCOC(=O)C1=C(N)c2ccccc2CC1C(C)C (stereo unspecified)

>  <z-score>
-0.876

$$$$
>  <molecule>
COc1ccc(C2/C(=C(/O)c3ccccc3)C(=O)C(=O)N2c2ncccn2)cc1OC (stereo unspecified)

>  <z-score>
-0.858

$$$$

Could you tell me z-score for each of these molecules? They are listed below.
1. CC1(C)S[C@@H]2[C@H](NC(=O)[C@H](C(=O)O)c3ccsc3)C(=O)N2[C@H]1C(=O)O
2. O=C(O)c1ccc(COc2c(F)c(F)c(F)c(F)c2F)o1

[0.566, -0.83]

Could you tell me z-score for each of these molecules? They are listed below.
1. CCC1(c2ccccc2)C(=O)NCNC1=O
2. Cc1cc(/C(O)=C2\C(=O)C(=O)N(CCN(C)C)C2c2ccncc2)ccc1OCc1ccccc1 (stereo unspecified)
3. COCCNc1oc(-c2ccc(Cl)cc2)nc1C#N
4. COCCN(CCOC)C(=O)C12CCC(C)(C(=O)C1)C2(C)C (stereo unspecified)
5. CC(=O)Nc1cnc2ccccc2n1
6. COc1cccc(/C(O)=C2/C(=O)C(=O)N(CCCN(C)C)C2c2cccc(Cl)c2)c1 (stereo unspecified)

[-0.522, -0.699, -0.188, 1.23, 0.164, 0.354]

Could you tell me z-score for each of these molecules? They are listed below.
1. CN1C(=O)c2c(sc3c2CCCC3)NC1c1ccccc1O (stereo unspecified)
2. CCOC(=O)CCCCC(=O)NC(CO)C(=O)NC (stereo unspecified)

[0.821, -0.705]

----------
# assay-explanation: inhibitors of TNFa-induced NFkB p65 translocation, primary screen, imaging, HUVEC, MLSMR starter and 10KST1 sets (AID 438);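 further: compound added about 3h40 before a 20 min TNFalpha stimulation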
# experimental-conditions: HUVEC TNFa-induced p65 nuclear translocation; measured here: nuclei count (cytotoxicity indicator), at 2.08 µM
parameter: cell count
Answers are plain numbers.

Example results:
>  <compound>
COc1cc([C@@H]2[C@H]3CNCC=C3C(C#N)=C(N)C2(C#N)C#N)ccc1OC(C)C

>  <cell count>
520

$$$$
>  <compound>
O=S(=O)(c1ccc(Cl)cc1)N1CCC(N2CCCCCC2)CC1

>  <cell count>
450

$$$$
>  <compound>
CNC(=O)c1ncnnc1N(C)C(=O)NCc1ccccc1

>  <cell count>
506

$$$$
>  <compound>
Cc1cc(C)c(C#N)c(SCc2[nH]nc3c2C(c2ccccc2)C(C#N)=C(N)O3)n1 (stereo not drawn)

>  <cell count>
633

$$$$
>  <compound>
CC(C)NCC(O)COc1ccc(CCOCC2CC2)cc1 (stereo not drawn)

>  <cell count>
564

$$$$
>  <compound>
Cn1ncc2nnn(-c3ccccc3)c(=O)c21

>  <cell count>
492

$$$$

Could you tell me cell count for each of these compounds? They are listed below.
1. CN(C=C1C(=O)CC(C)(C)CC1=O)CCN1CCNCC1
2. Cn1cc(NC(=O)c2cc(NC(=O)c3cc(NC=O)cn3C)cn2C)cc1C(=O)NCCC(=N)N
3. COc1ccccc1C(CC(=O)Nc1nccs1)c1ccco1 (stereo not drawn)
4. Clc1ccc(-c2nnc3sc(Cc4cccs4)nn23)c(Cl)c1
5. CCCCOC(=O)Nc1ccc(S(=O)(=O)Nc2nc(C)cc(C)n2)cc1
6. O=C1OC2CCC1(c1ccccc1)C2 (stereo not drawn)
7. COc1ccc2c(c1OC)C(=O)N1c3ccccc3C(=O)N(c3ccc(F)cc3)C21 (stereo not drawn)

1: 624; 2: 571; 3: 354; 4: 664; 5: 515; 6: 573; 7: 409

----------
Record form. Attribute: z-score. Fill in for each entry.
# assay-explanation: DUSP6 inhibitors restoring Erk phosphorylation by chemical complementation, primary imaging in DUSP6-transfected HeLa (AID 609)
# experimental-conditions: HeLa MKP-3 transfected, phospho-Erk imaging KS statistic; measured here: cell density z-score; at 10 µM; cells stimulated with TPA for 15 min
Give bare numbers.

Example results:
>  <compound>
CC(C)OC(=O)c1nn2c(C(F)(F)F)cc(-c3ccc(Br)o3)nc2c1Br

>  <reported-value>
-1.28

$$$$
>  <compound>
CN1CCC2(CC1)C1CN(C)CC=C1C(C#N)=C(N)C2(C#N)C#N (stereo unspecified)

>  <reported-value>
-1.09

$$$$
>  <compound>
Cc1ccc2c(c1)C(CCN)C(=O)N2Cc1ccccc1 (stereo unspecified)

>  <reported-value>
0.106

$$$$

Could you tell me z-score for each of these compounds? They are listed below.
1. CCN(CC)c1ccc2cc(-c3nnc(-c4ccncc4)o3)c(=O)oc2c1
2. Cc1nc2c(c(=O)n1CC1CCCO1)c1nc3ccccc3nc1n2CCC(C)C (stereo unspecified)
3. COCc1[nH]nc2c1C(c1cccc(OC)c1)C(C#N)=C(N)O2 (stereo unspecified)

1. -0.456
2. 1.21
3. 0.403

----------
# assay-explanation: inhibitors of larval lipid processing in zebrafish, primary screen, whole organism, PED6 fluorescence, gall bladder and intestine (AID 686);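 further: larvae 5 to 7 days old with five fish per well; signal comes from phospholipase A2 cleavage of quenched PED6 carried via bile; overnight exposure to compound and PED6 before scoring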
# experimental-conditions: Zebrafish larvae PED6 lipid processing, fluorescence scoring; screened at 20 µM (by protocol)
Calls of active or inactive are those of the source.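 The calls were made as follows: active = a full or partial loss of lipid-probe fluorescence in the fish gall bladder, intestine or both, judged by eye; inactive = no fluorescence loss, or compound toxic to the fish.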
Thanks in advance; please answer with one of these: active, inactive

Past entries and their recorded results:
>  <compound>
COC(=O)CC1=NC(=O)CS1

>  <label>
inactive

$$$$
>  <compound>
COc1ccc2c(=O)c(-c3nc(C)cs3)coc2c1

>  <label>
inactive

$$$$
>  <compound>
COC(=O)c1sccc1NC(=O)c1c(C)cc(=O)oc1C

>  <label>
inactive

$$$$

How did this test come out for `CCCC(=O)N(Cc1cc2ccccc2[nH]c1=O)c1ccccc1OC` ? inactive

How did this test come out for `COc1cccc(-c2nnc3sc(-c4ccco4)nn23)c1` ? active

How did this test come out for `CCOC(=O)C1=C[C@]2(CC)CCCN3CCc4c(n1c1ccccc41)[C@@H]32` ? inactive

How did this test come out for `COc1ccc(C2=Nn3c(nnc3-c3ccccn3)SC2)cc1OC` ? inactive

How did this test come out for `O=C(Nc1ccccc1C(=O)NCCCn1ccnc1)c1ccccc1` ? inactive

How did this test come out for `CC(=O)Nc1ccc(Oc2ccc3nc(C)[nH]c3c2)cc1` ? inactive

How did this test come out for N#C/C(C(=O)NCc1ccccc1)=C1\SC(CCO)C(=O)N1c1ccccc1 (centres undefined) ? inactive

How did this test come out for `CC1(C)Cc2c(sc3nc4n(c(=N)c23)CCC4)CO1` ? inactive

How did this test come out for `Cn1c(O)c(C=Nc2ccc(Cc3ccncc3)cc2)c(=O)n(C)c1=O` ? inactive

How did this test come out for COc1ccc(CCNC2CC(C)N(C)CC2C)cc1OC (centres undefined) ? inactive

How did this test come out for `O=C(c1ccc(=O)oc1)N1CCOCC1` ? inactive

How did this test come out for `Cc1nnc2n(-c3ccccc3)c(=O)c3c4c(sc3n12)CCCC4` ? inactive

How did this test come out for `CCCCNC1=C(Br)C(=O)CC(C)(C)C1` ? inactive

----------
Record form. Attribute: fluorescence slope. Fill in for each entry.
# experimental-system: Voltage-gated potassium channel subunit beta-2 (Rattus norvegicus) (UniProt P62483)
# Sequence (P62483 whole entry, looked up): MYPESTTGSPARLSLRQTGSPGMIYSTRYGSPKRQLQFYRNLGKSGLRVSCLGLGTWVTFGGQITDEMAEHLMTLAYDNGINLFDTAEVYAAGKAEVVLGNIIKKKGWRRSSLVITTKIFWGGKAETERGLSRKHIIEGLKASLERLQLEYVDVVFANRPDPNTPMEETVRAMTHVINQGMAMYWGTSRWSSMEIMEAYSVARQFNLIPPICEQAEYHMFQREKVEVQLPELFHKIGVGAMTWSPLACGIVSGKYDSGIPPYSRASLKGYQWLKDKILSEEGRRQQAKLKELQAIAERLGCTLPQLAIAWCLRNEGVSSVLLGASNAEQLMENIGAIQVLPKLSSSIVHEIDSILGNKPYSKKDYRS
# assay-explanation: KvBeta enzyme negative modulators, primary screen, biochemical, NADPH fluorescence (AID 622);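 further: slope of raw intensity against log time taken from 70 to 1610 s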
# experimental-conditions: recombinant KvBeta, 4-cyanobenzaldehyde reduction, at 10 µM, stronger effect = higher value
Answers are plain numbers.

Example results:
>  <molecule>
O=C(NCCO)c1cccc2c1C(=O)c1ccccc1-2

>  <reported-value>
-0.517

$$$$
>  <molecule>
Cc1nc2c(o1)CCc1ccccc1C2O (stereo unspecified)

>  <reported-value>
-0.523

$$$$
>  <molecule>
CCn1cc(C(=O)NCCCN(C)C)c(=O)c2cc(F)c(N3CCN(C)CC3)cc21

>  <reported-value>
-0.286

$$$$
>  <molecule>
CCN1CCCC1Cn1cnc2c([nH]c3ccc(C)cc32)c1=O (stereo unspecified)

>  <reported-value>
-0.357

$$$$
>  <molecule>
CCC1(C)Cc2c(sc3[nH]c(=O)[nH]c(=O)c23)CS1 (stereo unspecified)

>  <reported-value>
-0.519

$$$$

Could you tell me fluorescence slope for each of these molecules? They are listed below.
1. COCCCn1c2nc3ccccc3nc2c2c(=O)n(CC3CCCO3)cnc21 (stereo unspecified)
2. CCOC(=O)NC(O)C(=O)c1cccs1 (stereo unspecified)
3. N#CC12CCCCC1CC1CCCCC1(C#N)N2Cc1ccccn1 (stereo unspecified)
4. CCCCc1nc2n[nH]c(N)c2c2c1CCCC2
5. CCCOc1ccc(/C(O)=C2/C(=O)C(=O)N(CCCn3ccnc3)C2c2cccs2)cc1 (stereo unspecified)
6. COc1cccc(N2CCN(C3CC(=O)N(c4cccc(Cl)c4)C3=O)CC2)c1 (stereo unspecified)

-0.368
-0.5
-0.46
-0.447
-0.495
-0.43

Could you tell me fluorescence slope for each of these molecules? They are listed below.
1. CCC1(C)Cc2c(sc3c2c(=O)n(C)c2nnc(SCc4ccc5c(c4)OCO5)n32)CO1 (stereo unspecified)
2. N#CC1(c2ccccc2)CCC(=NO)CC1 (stereo unspecified)

1. -0.418
2. -0.461

Could you tell me fluorescence slope for each of these molecules? They are listed below.
1. CCCc1[nH]n(-c2nc3ccccc3s2)c(=O)c1C=NCCN1CCOCC1
2. CC1(C)CC(NC(=O)C23CCC(C)(/C(=N/O)C2)C3(C)C)CC(C)(C)N1 (stereo unspecified)
3. Cn1c(O)c(C=Nc2ccc(Cc3ccncc3)cc2)c(=O)n(C)c1=O
4. Cn1c(SCC(=O)N2CCOCC2)nnc1-c1cccc(NC(=O)c2ccccc2F)c1
5. CC[C@H]1OC(=O)C[C@@H](O)[C@H](C)[C@@H](O[C@@H]2O[C@H](C)C[C@H](N(C)C)[C@H]2O)[C@@H](CC=O)C[C@@H](C)C(=O)C=C[C@]2(C)O[C@H]2[C@@H]1C
6. CCOC(=O)c1[nH]c2cc3c(cc2c1NC(=O)CN1CCC2(CC1)OCCO2)OCO3

1. -0.474
2. -0.399
3. -0.486
4. -0.578
5. -0.498
6. -0.0748

Could you tell me fluorescence slope for each of these molecules? They are listed below.
1. O=C(Nc1nc(NC(=O)c2ccco2)n(-c2ccccc2)n1)c1ccccc1
2. Cc1nnc(SCC2=C(C(=O)O)N3C(=O)[C@@H](NC(=O)Cn4cnnn4)[C@H]3SC2)s1

-0.452
-0.495
